# Tested on: K98450-129-R-PDC multicell spheroids, viability;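 also: spheroids exposed to agents for seven days before read-out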
# TEST: Anticancer human tumor K98450-129-R-PDC patient-derived colon adenocarcinoma cell line growth inhibition [PI3K]
# REPORTED_CONDITIONS: second compound 3.16 µM; first compound 1 µM; active compounds read low

>  <COMPOUND>
C#Cc1c(F)ccc2cc(O)cc(-c3ncc4c(N5CC6CCC(C5)N6)nc(OCC56CCCN5CC(F)C6)nc4c3F)c12 (stereo not given) + CC(Nc1ncnc2nc[nH]c12)c1cc2cccc(Cl)c2c(=O)n1-c1ccccc1

>  <STUDY_TARGET>
K98450-129-R-PDC multicell spheroids, viability;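 also: spheroids exposed to agents for seven days before read-out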

>  <viability, T/C [%]>
85.1

$$$$
>  <COMPOUND>
CNC(=O)c1ccc(N2C(=S)N(c3ccc(C#N)c(C(F)(F)F)c3)C(=O)C2(C)C)cc1F + CC(Nc1ncnc2nc[nH]c12)c1cc2cccc(Cl)c2c(=O)n1-c1ccccc1

>  <STUDY_TARGET>
K98450-129-R-PDC multicell spheroids, viability;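 also: spheroids exposed to agents for seven days before read-out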

>  <viability, T/C [%]>
83.1

$$$$
>  <COMPOUND>
CC1(C)CCC(CN2CCN(c3ccc(C(=O)NS(=O)(=O)c4ccc(NCC5CCOCC5)c([N+](=O)[O-])c4)c(Oc4cnc5[nH]ccc5c4)c3)CC2)=C(c2ccc(Cl)cc2)C1 + Cc1nc(NC(=O)N2CCCC2C(N)=O)sc1-c1ccnc(C(C)(C)C(F)(F)F)c1

>  <STUDY_TARGET>
K98450-129-R-PDC multicell spheroids, viability;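 also: spheroids exposed to agents for seven days before read-out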

>  <viability, T/C [%]>
84.3

$$$$
>  <COMPOUND>
CNC(=O)c1ccc(N2C(=S)N(c3ccc(C#N)c(C(F)(F)F)c3)C(=O)C2(C)C)cc1F + Cc1nc(NC(=O)N2CCCC2C(N)=O)sc1-c1ccnc(C(C)(C)C(F)(F)F)c1

>  <STUDY_TARGET>
K98450-129-R-PDC multicell spheroids, viability;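 also: spheroids exposed to agents for seven days before read-out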

>  <viability, T/C [%]>
81.8

$$$$
>  <COMPOUND>
CCN1CCN(Cc2ccc(Nc3ncc(F)c(-c4cc(F)c5nc(C)n(C(C)C)c5c4)n3)nc2)CC1 + CC(Nc1ncnc2nc[nH]c12)c1cc2cccc(Cl)c2c(=O)n1-c1ccccc1

>  <STUDY_TARGET>
K98450-129-R-PDC multicell spheroids, viability;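 also: spheroids exposed to agents for seven days before read-out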

>  <viability, T/C [%]>
83.2

$$$$
>  <COMPOUND>
CC(Cn1ccc(-c2ccc(C#N)c(Cl)c2)n1)NC(=O)c1cc(C(C)O)[nH]n1 (stereo not given) + CC(Nc1ncnc2nc[nH]c12)c1cc2cccc(Cl)c2c(=O)n1-c1ccccc1

>  <STUDY_TARGET>
K98450-129-R-PDC multicell spheroids, viability;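 also: spheroids exposed to agents for seven days before read-out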

>  <viability, T/C [%]>
80.3

$$$$
>  <COMPOUND>
Cn1ncc(Cl)c1-c1cc(C(=O)NC(CN)Cc2cccc(F)c2)sc1Cl (stereo not given) + CC(Nc1ncnc2nc[nH]c12)c1cc2cccc(Cl)c2c(=O)n1-c1ccccc1

>  <STUDY_TARGET>
K98450-129-R-PDC multicell spheroids, viability;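 also: spheroids exposed to agents for seven days before read-out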

>  <viability, T/C [%]>
96.9

$$$$
>  <COMPOUND>
CC(C)NCC(C(=O)N1CCN(c2ncnc3c2C(C)CC3O)CC1)c1ccc(Cl)cc1 (stereo not given) + Cc1nc(NC(=O)N2CCCC2C(N)=O)sc1-c1ccnc(C(C)(C)C(F)(F)F)c1

>  <STUDY_TARGET>
K98450-129-R-PDC multicell spheroids, viability;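 also: spheroids exposed to agents for seven days before read-out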

>  <viability, T/C [%]>
80.3

$$$$
>  <COMPOUND>
Cn1nccc1Nc1nccc(-c2ccn(C(CO)c3ccc(Cl)c(F)c3)c(=O)c2)n1 (stereo not given) + Cc1nc(NC(=O)N2CCCC2C(N)=O)sc1-c1ccnc(C(C)(C)C(F)(F)F)c1

>  <STUDY_TARGET>
K98450-129-R-PDC multicell spheroids, viability;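 also: spheroids exposed to agents for seven days before read-out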

>  <viability, T/C [%]>
77.9

$$$$
>  <COMPOUND>
CC1(C)CCC(CN2CCN(c3ccc(C(=O)NS(=O)(=O)c4ccc(NCC5CCOCC5)c([N+](=O)[O-])c4)c(Oc4cnc5[nH]ccc5c4)c3)CC2)=C(c2ccc(Cl)cc2)C1 + CC(Nc1ncnc2nc[nH]c12)c1cc2cccc(Cl)c2c(=O)n1-c1ccccc1

>  <STUDY_TARGET>
K98450-129-R-PDC multicell spheroids, viability;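 also: spheroids exposed to agents for seven days before read-out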

>  <viability, T/C [%]>
86.1

$$$$
